assay_system: 3',5'-cyclic-AMP phosphodiesterase 4B (Homo sapiens) (UniProt Q07343)
Sequence (Q07343 whole entry, looked up): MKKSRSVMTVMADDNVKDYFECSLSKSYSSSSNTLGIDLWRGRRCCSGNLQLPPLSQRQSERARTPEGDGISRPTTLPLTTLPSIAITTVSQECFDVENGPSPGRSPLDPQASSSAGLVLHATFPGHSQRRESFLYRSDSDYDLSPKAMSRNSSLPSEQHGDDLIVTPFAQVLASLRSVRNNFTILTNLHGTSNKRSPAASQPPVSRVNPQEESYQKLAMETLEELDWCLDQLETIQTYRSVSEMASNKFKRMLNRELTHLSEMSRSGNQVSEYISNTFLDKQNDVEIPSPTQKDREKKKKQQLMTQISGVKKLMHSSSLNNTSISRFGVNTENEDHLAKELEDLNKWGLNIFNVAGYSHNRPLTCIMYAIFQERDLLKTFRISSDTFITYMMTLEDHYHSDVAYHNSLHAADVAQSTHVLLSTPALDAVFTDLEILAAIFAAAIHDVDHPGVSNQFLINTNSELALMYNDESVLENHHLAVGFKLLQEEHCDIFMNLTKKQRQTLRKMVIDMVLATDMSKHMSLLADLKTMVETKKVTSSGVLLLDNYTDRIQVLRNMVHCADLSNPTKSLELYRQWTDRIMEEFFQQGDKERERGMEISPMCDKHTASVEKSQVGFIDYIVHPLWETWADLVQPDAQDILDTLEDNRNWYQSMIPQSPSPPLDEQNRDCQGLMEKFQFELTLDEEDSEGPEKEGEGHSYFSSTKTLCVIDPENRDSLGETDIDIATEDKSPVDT
assay_remarks: qHTS Assay for Inhibitors of PDE-IV (AID 607)
test_settings: HEK293 ACTOne CNG channel cells, membrane potential fluorescence; series mostly up to 22.9 µM
Inconclusive results are not listed. The source made the active and inactive calls. The call rests on the fitted dose curve; in most records, active means well fitted activation curve with a large enough effect in the main read-out, with a control signal flat (not every such curve was filed as active); inconclusive means small, poorly fitted or top-dose-only effect, or effect the other way, or a change in a side signal; inactive means flat fitted curve, though single readings scatter.
measure_name: outcome

CC(C)C[C@@H](CC(=O)N[C@H](CC(=O)N[C@@H]1CCCC[C@H]1C(=O)N[C@H](CC(=O)N[C@@H](CCC(=O)O)CC(=O)O)CC(C)C)C(C)C)NC(=O)[C@@H]1CCCC[C@H]1N    inactive
CCC[C@@H]1C[C@@]1(CCC)C(NC(=O)c1ccc(-c2ccccc2)cc1)c1cccc(Cl)c1 (stereo partly drawn)    inactive
COC(=O)[C@@]1(Cc2ccccc2)[C@H]2c3cc(C(=O)N4CCCC4)n(Cc4ccc(OC)c(OC)c4)c3C[C@H]2CN1C(=O)c1ccccc1    inactive

Ref: PubChem BioAssay (NCATS)
